Below, IC50 values reported for Somatostatin receptor type 5 (Homo sapiens, UniProt P35346) across several publications.

C[C@@H](O)[C@@H]1NC(=O)[C@@H](N(C)C(=O)CCN)NC(=O)[C@@H](Cc2c[nH]c3ccccc23)NC(=O)[C@H](Cc2ccccc2)NC(=O)[C@H](Cc2ccccc2)NC(=O)[C@@H](N)CSSC[C@@H](C(=O)O)NC(=O)[C@H](Cc2ccccc2)NC1=O | > 1000 nM
CN[C@H]1CSSC[C@@H](C(=O)O)NC(=O)[C@H](CO)NC(=O)[C@H]([C@@H](C)O)NC(=O)[C@H](Cc2ccccc2)NC(=O)[C@H]([C@@H](C)O)NC(=O)[C@H](Cc2ccc(CNC(C)C)cc2)NC(=O)[C@@H](Cc2c[nH]c3ccccc23)NC(=O)[C@H](Cc2ccccc2)NC(=O)[C@H](Cc2ccccc2)NC(=O)[C@H](CCCCN)NC1=O | > 1000 nM
CC(C)NCc1ccc(C[C@@H]2NC(=O)[C@@H](Cc3c[nH]c4ccccc34)NC(=O)[C@H](Cc3ccccc3)NC(=O)[C@H](Cc3ccccc3)NC(=O)[C@H](CCCCN)NC(=O)[C@@H](N)CSSC[C@@H](C(=O)O)NC(=O)[C@H](CO)NC(=O)[C@H]([C@@H](C)O)N(C)C(=O)[C@H](Cc3ccccc3)NC(=O)[C@H]([C@@H](C)O)NC2=O)cc1 | > 1000 nM
C[C@@H](O)[C@@H]1NC(=O)[C@H](CCCCN)NC(=O)[C@@H](Cc2c[nH]c3ccccc23)NC(=O)[C@H](N(C)C(=O)c2ccccc2)NC(=O)[C@H](Cc2ccccc2)NC(=O)[C@H](N)CSSC[C@@H](C(=O)O)NC(=O)[C@H](Cc2ccccc2)NC1=O (stereo in doubt; 8) | 768 nM

IN: Please state recorded IC50 (tested on Somatostatin receptor type 5 (Homo sapiens, UniProt P35346)) of "CC(C)NCc1ccc(C[C@@H]2NC(=O)[C@@H](Cc3ccc4ccccc4c3)NC(=O)[C@H](Cc3ccccc3)NC(=O)[C@H](Cc3ccccc3)NC(=O)[C@H](CCCCN)NC(=O)[C@H](NC(=O)CCc3ccc(O)cc3)CSSC[C@H](C(=O)O)NC(=O)[C@H](CO)NC(=O)[C@H]([C@@H](C)O)NC(=O)[C@H](Cc3ccccc3)NC(=O)[C@H]([C@@H](C)O)NC2=O)cc1"
Sequence (P35346 whole entry): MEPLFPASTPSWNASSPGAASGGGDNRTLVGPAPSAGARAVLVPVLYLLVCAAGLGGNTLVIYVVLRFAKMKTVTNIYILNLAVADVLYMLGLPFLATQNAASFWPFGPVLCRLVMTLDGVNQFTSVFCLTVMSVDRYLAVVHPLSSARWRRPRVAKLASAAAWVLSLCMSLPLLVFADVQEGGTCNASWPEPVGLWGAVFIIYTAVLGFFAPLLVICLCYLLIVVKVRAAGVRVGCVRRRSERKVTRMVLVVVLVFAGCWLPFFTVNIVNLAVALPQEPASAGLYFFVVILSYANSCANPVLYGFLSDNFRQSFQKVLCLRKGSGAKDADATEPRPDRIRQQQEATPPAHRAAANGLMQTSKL
OUT: > 1000 nM

IN: Please state recorded IC50 (tested on Somatostatin receptor type 5 (Homo sapiens, UniProt P35346)) of "CC(C)NCc1ccc(C[C@@H]2NC(=O)[C@@H](Cc3c[nH]c4ccccc34)NC(=O)[C@@H]3CCC(=O)NCCCCCC[C@@H](NC(=O)[C@H](Cc4ccccc4)NC(=O)[C@H]([C@@H](C)O)NC2=O)C(=O)N[C@@H](CO)C(=O)N[C@H](C(=O)O)CSSC[C@H](NC(=O)[C@@H](N)Cc2ccc(O)cc2)C(=O)N[C@@H](CCCCN)C(=O)N[C@@H](Cc2ccccc2)C(=O)N3)cc1"
OUT: > 1000 nM

* * *

pIC50: −log10 of the molar value.
Below, pIC50 values reported for Somatostatin receptor type 5 (Homo sapiens, UniProt P35346) across several publications.

CC(C)NCc1ccc(C[C@@H]2NC(=O)[C@H](N(C)C(=O)c3ccc4ccccc4c3)NC(=O)[C@H](Cc3ccccc3)NC(=O)[C@@H](N)CSSC[C@@H](C(=O)N[C@H](C(N)=O)[C@@H](C)O)NC(=O)[C@H](Cc3ccccc3)NC2=O)cc1 | < 6.00
C[C@@H](O)[C@@H]1NC(=O)[C@H](CCCCN)NC(=O)[C@@H](Cc2c[nH]c3ccccc23)NC(=O)[C@H](Cc2ccccc2)NC(=O)[C@H](Cc2ccccc2)NC(=O)[C@@H](N)CSSC[C@@H](C(=O)O)NC(=O)[C@@H](N(C)C(=O)c2ccccc2)NC1=O | < 6.00
C[C@@H](O)[C@@H]1NC(=O)[C@@H](NC(=O)CCN)NC(=O)[C@@H](Cc2c[nH]c3ccccc23)NC(=O)[C@H](Cc2ccccc2)NC(=O)[C@H](Cc2ccccc2)NC(=O)[C@@H](N)CSSC[C@@H](C(=O)O)NC(=O)[C@H](Cc2ccccc2)NC1=O (stereo in doubt; 17) | < 5.00

For the next question, use this compound.
IN: Please state recorded pIC50 (tested on Somatostatin receptor type 5 (Homo sapiens, UniProt P35346)) of "C[C@@H](O)[C@@H]1NC(=O)[C@H](CCCCN)NC(=O)[C@H](Cc2c[nH]c3ccccc23)NC(=O)[C@H](Cc2ccc(O)cc2)NC(=O)[C@H](Cc2ccccc2)NC(=O)[C@@H](N)CSSC[C@@H](C(=O)O)NC(=O)[C@H](Cc2ccccc2)NC1=O"
OUT: 7.20

* * *

Below, IC50 values reported for Somatostatin receptor type 5 (Homo sapiens) across several publications.
Number in nM, nothing else.

CC(C)[C@@H]1NC(=O)[C@H](CCCCN)NC(=O)[C@@H](Cc2c[nH]c3ccccc23)NC(=O)[C@H](Cc2ccc(O)cc2)NC(=O)[C@H](C)N(C)C(=O)[C@H](Cc2ccccc2)N(C)C1=O | 53
NCCCCCN1Cc2[nH]c3ccccc3c2C[C@@H](NC(=O)Cc2ccccc2)C1=O | 245
C[C@@H](O)[C@@H]1NC(=O)[C@H](CCCCN)NC(=O)[C@@H](Cc2c[nH]c3ccccc23)NC(=O)[C@H](Cc2ccc(NC(N)=O)cc2)NC(=O)[C@H](NC(=O)[C@H](Cc2ccc(Cl)cc2)NC(=O)CCOCCOCCOCCNC(=O)CN2CCN(CC(=O)O)CCN(CC(=O)O)CCN(CC(=O)O)CC2)CSSC[C@@H](C(=O)N[C@@H](Cc2ccc3ccccc3c2)C(N)=O)NC1=O | 895
C[C@@H](O)[C@@H]1NC(=O)[C@H](Cc2ccccc2)NC(=O)[C@H]([C@@H](C)O)NC(=O)[C@H](CCCCN)NC(=O)[C@@H](Cc2c[nH]c3ccccc23)NC(=O)[C@H](Cc2ccccc2)NC(=O)[C@H](Cc2ccccc2)NC(=O)[C@H](CC(N)=O)NC(=O)[C@H](CCCCN)NC(=O)[C@@H](N)CSSC[C@@H](C(=O)O)NC(=O)[C@H](CO)NC1=O | 16.7
C[C@@H](O)[C@@H]1NC(=O)[C@H](CCCCN)NC(=O)[C@@H](Cc2c[nH]c3ccccc23)NC(=O)[C@H](Cc2ccc(O)cc2)NC(=O)[C@H](Cc2ccccc2)NC(=O)[C@@H](N)CSSC[C@@H](C(=O)O)NC(=O)[C@H](Cc2ccccc2)NC1=O | 20.3
C[C@@H](O)[C@@H]1NC(=O)[C@H](CCCCN)NC(=O)[C@H]([C@@H](C)c2ccc3ccccc3c2)NC(=O)[C@H](Cc2ccc(O)cc2)NC(=O)[C@H](Cc2ccccc2)NC(=O)[C@@H](N)CSSC[C@@H](C(=O)O)NC(=O)[C@H](Cc2ccccc2)NC1=O | 360

IN: Please state recorded IC50 (tested on Somatostatin receptor type 5 (Homo sapiens)) of "NCCCC[C@@H](C(=O)NCc1ccccc1)N1Cc2[nH]c3ccccc3c2C[C@@H](NC(=O)CC(c2ccccc2)c2ccccc2)C1=O"
OUT: 8

IN: Please state recorded IC50 (tested on Somatostatin receptor type 5 (Homo sapiens)) of CN(C(=O)CO)[C@H]1NC(=O)[C@H](CCCCN)NC(=O)[C@@H](Cc2c[nH]c3ccccc23)NC(=O)[C@H](Cc2ccccc2)NC(=O)[C@H](Cc2ccccc2)NC(=O)[C@@H](N)CSSC[C@@H](C(=O)O)NC(=O)[C@H](Cc2ccccc2)NC1=O (stereo in doubt; 21)
OUT: 389

* * *

Below, pIC50 values reported for UniProt P35346 across several publications.
// scale note: pIC50 = -log10(conc_M); give the bare number

C[C@@H](O)[C@H]1NC(=O)[C@H](CCCCN)NC(=O)[C@@H]([C@@H](C)c2ccc3ccccc3c2)NC(=O)[C@H](Cc2ccccc2)NC(=O)[C@@H](Cc2ccccc2)NC(=O)[C@H](N)CSSC[C@@H](C(=O)O)NC(=O)[C@H](Cc2ccc(O)cc2)NC1=O | 6.15
C[C@@H](O)[C@@H]1NC(=O)[C@H](CCCCN)NC(=O)[C@@H](Cc2c[nH]c3ccccc23)NC(=O)[C@H](Cc2ccccc2)NC(=O)[C@H](Cc2ccccc2)NC(=O)[C@H](CCCCN)NC(=O)[C@@H](N)CSSC[C@@H](C(=O)O)NC(=O)[C@H](Cc2ccccc2)NC1=O | 7.89

For the next question, use this molecule.
IN: Please state recorded pIC50 (tested on UniProt P35346) of "CC(C)[C@@H]1NC(=O)[C@H](CCCCN)NC(=O)[C@@H](Cc2c[nH]c3ccccc23)N(C)C(=O)[C@H](Cc2ccc(O)cc2)NC(=O)[C@H](C)N(C)C(=O)[C@H](Cc2ccccc2)N(C)C1=O"
OUT: 7.12
